Test: Aqueous solubility at 37° C.
Type: physicochemical
Details: fassgf or other biorelevant; simulated intestinal fluid, 37° C.; read-out: Solubility at 37° C., aqueous solubility (simulated intestinal fluid)
PARAMETER: solubility (µM)
Unit µM implied. Number only.

Task item: Entry CC(C)N1C(=O)S/C(=C\c2ccc(Sc3nc4ccccc4[nH]3)o2)C1=O [Compound 1] : reported solubility = ?
Reply: 80.2

----------
Tested on: NCIH1975 cells
Assay: Cell viability, CELL TITER GLO assay (Promega), NCIH1975 cells
Format: cell-based
Details: Homo sapiens, NCI-H1975
So I've got a bunch of compounds here, and I need their IC50 values.
Unit µM implied. Number only.

Task item: Entry CC(C)N1C(=O)S/C(=C\c2ccc(Sc3nc4cccc(Cl)c4[nH]3)o2)C1=O : reported IC50 = ?
Reply: 15.6

Task item: Entry CC(C)c1ccc2nc(Sc3ccc(/C=C4\SC(=O)N(C(C)C)C4=O)o3)[nH]c2c1 : reported IC50 = ?
Reply: 19.9

Task item: Entry CC(C)N1C(=O)S/C(=C\c2ccc(Sc3nc4ccc(C(F)(F)F)cc4[nH]3)o2)C1=O : reported IC50 = ?
Reply: 12.5

Task item: Entry Cc1cccc2nc(Sc3ccc(/C=C4\SC(=O)N(C(C)C)C4=O)o3)[nH]c12 : reported IC50 = ?
Reply: 28.2

Task item: Entry CC(C)N1C(=O)N/C(=C\c2ccc(Sc3nc4ccc(Cl)cc4[nH]3)o2)C1=O : reported IC50 = ?
Reply: 45.3

Task item: Entry COc1cccc2nc(Sc3ccc(/C=C4\SC(=O)N(C(C)C)C4=O)o3)[nH]c12 : reported IC50 = ?
Reply: 56.3

Task item: Entry CC(C)N1C(=O)S/C(=C\c2ccc(Sc3nc4ccc(Cl)cc4[nH]3)o2)C1=O : reported IC50 = ?
Reply: 17.3

Task item: Entry COc1ccc2nc(Sc3ccc(/C=C4\SC(=O)N(C(C)C)C4=O)o3)[nH]c2c1 : reported IC50 = ?
Reply: 34.5

Task item: Entry CC(C)N1C(=O)S/C(=C\c2ccc(Sc3nc4cc(Cl)c(Cl)cc4[nH]3)o2)C1=O : reported IC50 = ?
Reply: 7.88

Task item: Entry CC(C)N1C(=O)S/C(=C\c2ccc(Sc3nc4ccccc4[nH]3)o2)C1=O : reported IC50 = ?
Reply: 24.9

----------
Experiment: Aqueous solubility at 37° C.
Format: physicochemical
Conditions: aqueous buffer; PBS, pH 7.4, 37° C.; read-out: Solubility at 37° C., aqueous solubility (PBS, pH 7.4)
PARAMETER: solubility

Task item: Entry CC(C)N1C(=O)S/C(=C\c2ccc(Sc3nc4ccccc4[nH]3)o2)C1=O : reported solubility = ?
Reply: < 1 µM
